PROTOCOL SUMMARY: A qHTS for Small Molecule Inhibitors of Shiga Toxin; also: 0% is about no effect
PARTICULARS: Vero cells, Shiga toxin protein synthesis inhibition reporter; at 38.7 µM, hits give high values
Screen size: about 290,000 compounds; about 27,000 (9.3%) were called active. The sample as a whole holds a higher share of actives than the screen did.
READOUT NAME: inhibition (%)
Write down the numeric answer in % and omit the unit.

Examples from the recorded data:
COMPOUND | inhibition, %
O=C(Nc1ccc(NC(=O)c2ccccc2F)cc1)c1ccccc1F | -6.19
CCOC(=O)NNC(=O)c1ccc(Cl)cc1 | 11.6

Value of measured inhibition for the entry `CC(=O)N1C(=O)C2(Nc3ccccc3N2)c2ccccc21` : -7.58

Value of measured inhibition for the entry `O=C(CN1C(=O)c2cccnc2Oc2ccc(Cl)cc21)NCCc1ccccc1` : 3.75

Value of measured inhibition for the entry `COc1ccc(OC)c(S(=O)(=O)n2c([N+](=O)[O-])cnc2C)c1` : -7.62

Value of measured inhibition for the entry COCC1CCN(C(=O)CCc2nnc(C3(c4ccc(Cl)cc4)CCC3)o2)C1 (configuration not stated) : 59.4

Value of measured inhibition for the entry O=C(NNC(=S)NC1CC2CCC1C2)c1ccc(Cl)cc1 (configuration not stated) : 12.4

Value of measured inhibition for the entry `CCOc1nc(-c2ccc(OC)cc2)ccc1-c1noc(-c2cc(OC)c(OC)c(OC)c2)n1` : 11.8

Value of measured inhibition for the entry COc1cc(C(=O)N2CCN(C3CCC(C)CC3)CC2)cc(OC)c1OC (configuration not stated) : -9.82

Value of measured inhibition for the entry `O=C(NCc1cccnc1)C(=O)Nc1nc(-c2ccccc2)cs1` : 98

Value of measured inhibition for the entry `CC(C)c1ccc(S(=O)(=O)N2CCN(C(=O)c3ccc(N4CCCC4)c([N+](=O)[O-])c3)CC2)cc1` : 25.8

Value of measured inhibition for the entry `Cc1ccc(Cl)cc1NC(=O)COC(=O)CC(C)(C)C` : -3.98

Value of measured inhibition for the entry `CCSc1nc2sc3c(c2c(=O)n1-c1ccc(C)cc1)CCN(C)C3` : -6.21

Value of measured inhibition for the entry `COc1ccc(C(=O)NCc2nnc(SCC(=O)Nc3cccc(OC)c3)o2)cc1` : -4.36

Value of measured inhibition for the entry [2H]C(CCOS(N)(=O)=O)c1ccccc1 (configuration not stated) : -5.48

Value of measured inhibition for the entry `O=C1CCN(Cc2ccccc2)CCN1[C@H](CSc1ccccc1)c1ccccc1` : 11

Value of measured inhibition for the entry `COc1ccc(-c2noc(-c3cccc(OC)c3OC)n2)cc1OC` : 64.7

Value of measured inhibition for the entry `O=C(c1cc(S(=O)(=O)N2CCOCC2)ccc1Cl)N1CCOCC1` : -6.61

Value of measured inhibition for the entry O=C(NNC(=O)C1C2CCC(C2)C1C(=O)O)c1ccc(Cl)cc1 (configuration not stated) : 57.3

---

Each entry below carries its recorded inhibition.
PROTOCOL SUMMARY: A qHTS for Small Molecule Inhibitors of Shiga Toxin; also: 0% is about no effect
PARTICULARS: Vero cells, Shiga toxin protein synthesis inhibition reporter; at 38.7 µM, hits give high values
About 27,000 (9.3%) of roughly 290,000 compounds were called active. This is one part of a sample in which actives are shown more often than they occur.
Write down the numeric answer in % and omit the unit.

Examples from the recorded data:
COMPOUND | inhibition / %
CC(C)Cc1cc(C(=O)NCCc2ccccc2)no1 | 87.5
NC(=O)C1CCN(C(=O)CC2C(=O)NCCN2Cc2cccc(Oc3ccccc3)c2)CC1 (stereo unspecified) | -10.2
CC(C)/C=N/NC(=O)c1cc(Br)ccc1O | 30.6
CCOc1ccc(N(CC(=O)NCCc2ccc(F)cc2)S(=O)(=O)c2ccccc2)cc1 | 10.2
COc1cccc(CN(C)CC2CCCN(CCc3ccc(Cl)cc3)C2)c1OC (stereo unspecified) | -3.67

Value of measured inhibition for the entry `O=C(CCn1nnc2ccccc21)OCC(=O)c1ccc([N+](=O)[O-])cc1` : -9.08

Value of measured inhibition for the entry `COc1cccc(-c2cccc(NC(=O)C3CCN(C4CCC4)CC3)c2)c1` : -10.9

Value of measured inhibition for the entry Cc1cccc(NC(=O)C(C)SCc2ccccc2)c1 (stereo unspecified) : 30.2

Value of measured inhibition for the entry `CC(C)c1ccc(C(=O)NCCCc2ccccc2)cc1` : 60.6

Value of measured inhibition for the entry `O=C(NCCCc1ccccc1)c1cc(COc2c(F)cccc2F)on1` : 78.1

Value of measured inhibition for the entry `CC(C)C(=O)NCc1cc(-c2ccc(Cl)cc2)no1` : 10.8
